TEST PROTOCOL: PGE2 competition ELISA, format not stated (biotin-PGE2 or ^3H-PGE2)
Type: binding
APPLIED CONDITIONS: PGE1; humanized antibodies table
QUANTITY NAME: Cross Reactivity Index (%) PGE1
The reply should contain only the number, in %.

Field: example entries. Status: answers known.
| MOLECULE | MEASURED RESULT |
| --- | --- |
| Hu2B5.6: humanized 2B5-8.0; VH SEQ ID NO 70, VL SEQ ID NO 71 (antibody, V domains shown) VH: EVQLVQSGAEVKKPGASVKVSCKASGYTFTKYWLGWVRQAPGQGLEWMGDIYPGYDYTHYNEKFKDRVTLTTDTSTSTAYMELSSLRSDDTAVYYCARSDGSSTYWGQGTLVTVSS VL: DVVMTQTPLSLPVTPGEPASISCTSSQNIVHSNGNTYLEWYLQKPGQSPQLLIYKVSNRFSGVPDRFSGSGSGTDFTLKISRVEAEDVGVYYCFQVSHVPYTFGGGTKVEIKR | 11 |
| Hu2B5.1: humanized 2B5-8.0; VH SEQ ID NO 60, VL SEQ ID NO 61 (antibody, V domains shown) VH: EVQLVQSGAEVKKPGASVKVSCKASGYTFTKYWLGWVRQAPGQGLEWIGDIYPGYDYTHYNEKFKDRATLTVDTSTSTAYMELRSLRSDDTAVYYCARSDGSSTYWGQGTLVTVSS VL: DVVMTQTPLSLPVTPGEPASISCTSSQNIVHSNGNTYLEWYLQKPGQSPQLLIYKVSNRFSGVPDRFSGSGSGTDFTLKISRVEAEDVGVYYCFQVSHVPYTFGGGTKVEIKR | 16 |
| Hu2B5.2: humanized 2B5-8.0; VH SEQ ID NO 62, VL SEQ ID NO 63 (antibody, V domains shown) VH: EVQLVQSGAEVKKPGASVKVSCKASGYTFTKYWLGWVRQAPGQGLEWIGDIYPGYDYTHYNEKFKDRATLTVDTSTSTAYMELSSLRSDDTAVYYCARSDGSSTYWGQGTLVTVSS VL: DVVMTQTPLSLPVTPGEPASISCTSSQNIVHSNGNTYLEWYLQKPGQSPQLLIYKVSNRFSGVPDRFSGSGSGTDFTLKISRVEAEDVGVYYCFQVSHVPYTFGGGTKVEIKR | 14 |
| Hu2B5.3: humanized 2B5-8.0; VH SEQ ID NO 64, VL SEQ ID NO 65 (antibody, V domains shown) VH: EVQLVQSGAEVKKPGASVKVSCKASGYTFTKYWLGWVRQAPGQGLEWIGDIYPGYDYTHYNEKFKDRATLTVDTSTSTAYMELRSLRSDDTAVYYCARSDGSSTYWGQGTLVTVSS VL: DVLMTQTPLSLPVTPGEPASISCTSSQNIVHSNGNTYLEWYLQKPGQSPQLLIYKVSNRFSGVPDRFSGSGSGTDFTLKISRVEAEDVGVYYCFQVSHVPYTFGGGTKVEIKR | 14 |
| Hu2B5.4: humanized 2B5-8.0; VH SEQ ID NO 66, VL SEQ ID NO 67 (antibody, V domains shown) VH: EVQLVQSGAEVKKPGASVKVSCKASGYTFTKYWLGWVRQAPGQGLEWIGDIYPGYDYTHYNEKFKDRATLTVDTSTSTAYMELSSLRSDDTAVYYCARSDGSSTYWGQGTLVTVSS VL: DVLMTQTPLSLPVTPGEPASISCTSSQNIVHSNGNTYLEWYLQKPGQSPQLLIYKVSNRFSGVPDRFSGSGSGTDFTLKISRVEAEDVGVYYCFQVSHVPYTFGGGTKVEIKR | 14 |

Okay, now this molecule:
Let me know recorded Cross Reactivity Index (%) PGE1 for Hu2B5.8: humanized 2B5-8.0; VH SEQ ID NO 74, VL SEQ ID NO 75 (antibody, V domains shown) VH: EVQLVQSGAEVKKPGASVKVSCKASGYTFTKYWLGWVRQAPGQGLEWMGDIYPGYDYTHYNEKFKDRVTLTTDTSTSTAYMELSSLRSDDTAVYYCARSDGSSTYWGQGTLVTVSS VL: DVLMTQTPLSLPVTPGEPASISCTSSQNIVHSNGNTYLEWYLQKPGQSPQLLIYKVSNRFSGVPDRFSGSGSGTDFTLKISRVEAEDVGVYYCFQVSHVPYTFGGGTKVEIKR , thanks.
8.5
